# test_details: NCI Yeast Anticancer Drug Screen. Data for the cln2 rad14 strain (AID 165);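 further: 0% = growth equal to vehicle treated cultures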
# experimental_parameters: S. cerevisiae cln2 rad14 strain, at 50.0 µM, active compounds read high
Compounds without any hit were thinned out: in the full panel of roughly 79,000, 15% have a hit.
quantity_name: growth inhibition (%)
Kindly answer with a numeric value in %, unit omitted.

Sample records with growth inhibition:
{"compound": "COC(C)CCOC(=O)c1ccc(C(C)C)cc1 (centres undefined)", "growth inhibition, %": -21.7}
{"compound": "CC(C)CNC(=S)N/N=C/c1ccc(N)cc1", "growth inhibition, %": 27.8}
{"compound": "Cn1cnc2cc([N+](=O)[O-])ccc21", "growth inhibition, %": -24.6}
{"compound": "CCOC(=O)c1cccc(N)c1", "growth inhibition, %": -6.35}
{"compound": "CC(=O)c1ccc2ccc3ccccc3c2c1", "growth inhibition, %": -31.1}

In: For C=CCOC(=O)c1ccco1 , what is its reported growth inhibition?
Out: -1.4

In: Next: Cc1ccc(-c2cn3c(nc4ccccc43)c(-c3ccccc3)n2)cc1
Out: -53.4

In: Please answer likewise for CCOC(=O)c1cc(C)[nH]n1
Out: -11.7

In: Thanks! And CCN(CC)CCCNc1ccc2ncn3c4ccc(O)cc4c(=O)c1c23 ?
Out: 11.8

In: Again, but for CCCCCCOC(=O)C(O)C(C)(Cl)c1ccccc1 (centres undefined)
Out: 15.9

In: What do we get for C=CC(O)C1OC2OC(C)(C)OC2C2OC(C)(C)OC12 (centres undefined) ?
Out: -32.8

In: Param item: CC1(C)OC(=O)C=C(O)O1.CC1(C)OC(=O)C=C(O)O1.CCO.Oc1ccc2c(c1)CCC2.[Ti]
Out: 20.4

In: Repeat for the following compound: O=[N+]([O-])c1ccccc1-c1ccccc1[N+](=O)[O-]
Out: 10

In: Can you check Cc1ccccc1/C=N/Nc1ccc([N+](=O)[O-])cc1[N+](=O)[O-] next?
Out: -35.1
